Hello, the source for this data is ChEMBL document CHEMBL4368914, in case you need it.

TESTED_ON: UniProtKB P08684
Sequence (P08684 whole entry): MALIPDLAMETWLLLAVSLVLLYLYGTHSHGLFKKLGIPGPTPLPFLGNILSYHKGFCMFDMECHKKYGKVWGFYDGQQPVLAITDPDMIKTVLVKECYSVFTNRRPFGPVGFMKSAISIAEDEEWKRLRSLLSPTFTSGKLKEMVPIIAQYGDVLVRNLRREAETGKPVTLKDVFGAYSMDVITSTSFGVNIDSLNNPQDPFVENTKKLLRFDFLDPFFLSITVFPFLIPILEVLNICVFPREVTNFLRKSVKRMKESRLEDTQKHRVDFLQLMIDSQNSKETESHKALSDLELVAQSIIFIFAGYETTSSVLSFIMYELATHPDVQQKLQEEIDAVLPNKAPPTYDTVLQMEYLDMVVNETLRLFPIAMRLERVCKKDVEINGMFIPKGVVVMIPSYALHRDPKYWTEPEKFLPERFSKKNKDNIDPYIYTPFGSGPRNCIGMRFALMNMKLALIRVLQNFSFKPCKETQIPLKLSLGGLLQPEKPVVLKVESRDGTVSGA
READOUT_KIND: IC50 (µM)
Kindly provide the numeric value in µM only, without the unit symbol.

# IC50 measured on UniProtKB P08684 for item C[C@@H]1Cc2c(ccc3[nH]ncc23)[C@@H](c2c(F)cc(/C=C/C(=O)O)cc2F)N1CC(C)(C)F = 13

---

ASSAY_TEXT: AUC in rat at 1 mg/kg, po
Assay type: ADME, organism-based
ASSAY_CONDITIONS: in vivo, read-out: AUC
READOUT_KIND: AUC (µM·h)
Report only the number, with the unit µM·h understood.

Notebook: C[C@@H]1Cc2c(ccc3[nH]ncc23)[C@@H](c2c(F)cc(/C=C/C(=O)O)cc2F)N1CC(C)(C)F , AUC read as 0.83
